test: Solubility of prodrug in water or 0.1 N aqueous HCl (HPLC of filtrate); details: 0.1 N aqueous HCl, 37 °C, simulated gastric fluid, thermodynamic from solid
# binarize solubility at 1 h: threshold 200 µg/mL inclusive, high side criterion met, low side criterion not met

CCCCn1/c(=N/C(=O)c2cc(C(F)(F)F)ccc2OC[C@H](C)OC(=O)NCCN(C)C)sc2ccncc21 [Example 15] | criterion met
CCCCn1/c(=N/C(=O)c2cc(C(F)(F)F)ccc2OC[C@H](C)O)sc2cc[n+](COC(=O)c3ccccc3)cc21.[Cl-] [Example 5] | criterion not met
CCCCn1/c(=N/C(=O)c2cc(C(F)(F)F)ccc2OC[C@H](C)O)sc2ccncc21 [Example 18] | criterion not met
CCCCn1/c(=N/C(=O)c2cc(C(F)(F)F)ccc2OC[C@H](C)O)sc2cc[n+](COC(C)=O)cc21.[Br-] [Example 1] | criterion met
CCCCn1/c(=N/C(=O)c2cc(C(F)(F)F)ccc2OC[C@H](C)OP(=O)(O)O)sc2ccncc21 [Example 9] | criterion not met

Q. Dear colleague, could you confirm whether CCCCn1/c(=N/C(=O)c2cc(C(F)(F)F)ccc2OC[C@H](C)O)sc2cc[n+](COC(=O)N3CCC[C@H]3C(=O)OC)cc21.[Cl-] [Example 7] has solubility at 1 h at or above 200 µg/mL?
A. criterion met

Q. Check if solubility at 1 h >= 200 µg/mL (inclusive). Item: CCCCn1/c(=N/C(=O)c2cc(C(F)(F)F)ccc2OC[C@H](C)O)sc2cc[n+](COC(=O)N(C)C)cc21.[Cl-] [Example 8]
A. criterion met

Q. Determine whether measured solubility at 1 h meets or exceeds 200 µg/mL for CCCCn1/c(=N/C(=O)c2cc(C(F)(F)F)ccc2OC[C@H](C)OC(=O)C(C)(C)N)sc2ccncc21 [Example 2]
A. criterion met

Q. solubility at 1 h >= 200 µg/mL for CCCCn1/c(=N/C(=O)c2cc(C(F)(F)F)ccc2OC[C@H](C)OC(=O)[C@H](C)N)sc2ccncc21 [Example 6] ?
A. criterion met

* * *

assay: Solubility of prodrug in water or 0.1 N aqueous HCl (HPLC of filtrate); conditions: water, 25 °C, thermodynamic from solid
The following compounds are listed with their measured solubility at 1 h values.

See these solved cases before continuing.
CCCCn1/c(=N/C(=O)c2cc(C(F)(F)F)ccc2OC[C@H](C)O)sc2cc[n+](COC(=O)c3ccccc3)cc21.[Cl-] | 740 µg/mL
CCCCn1/c(=N/C(=O)c2cc(C(F)(F)F)ccc2OC[C@H](C)OC(=O)[C@H](C)N)sc2ccncc21 | 2300 µg/mL
CCCCn1/c(=N/C(=O)c2cc(C(F)(F)F)ccc2OC[C@H](C)O)sc2cc[n+](COC(=O)N(C)C)cc21.[Cl-] | 3900 µg/mL
CCCCn1/c(=N/C(=O)c2cc(C(F)(F)F)ccc2OC[C@H](C)OP(=O)(O)O)sc2ccncc21 | 830 µg/mL
CCCCn1/c(=N/C(=O)c2cc(C(F)(F)F)ccc2OC[C@H](C)O)sc2ccncc21 | < 0.02 µg/mL
CCCCn1/c(=N/C(=O)c2cc(C(F)(F)F)ccc2OC[C@H](C)OC(=O)NCCN(C)C)sc2ccncc21 | 680 µg/mL
CCCCn1/c(=N/C(=O)c2cc(C(F)(F)F)ccc2OC[C@H](C)O)sc2cc[n+](COC(=O)C(C)(C)C)cc21.[Cl-] | 3300 µg/mL
CCCCn1/c(=N/C(=O)c2cc(C(F)(F)F)ccc2OC[C@H](C)OC(=O)C(C)(C)N)sc2ccncc21 | 2300 µg/mL

Q. Look up solubility at 1 h for this compound: CCCCn1/c(=N/C(=O)c2cc(C(F)(F)F)ccc2OC[C@H](C)O)sc2cc[n+](COC(C)=O)cc21.[Br-]
A. 1800 µg/mL

Q. Could you share which solubility at 1 h value was measured for CCCCn1/c(=N/C(=O)c2cc(C(F)(F)F)ccc2OC[C@H](C)O)sc2cc[n+](COC(=O)N3CCC[C@H]3C(=O)OC)cc21.[Cl-] ?
A. > 4300 µg/mL
